TGT: dihydropyridine receptor
EXPERIMENT: inhibition of [3H]-nitrendipine binding in rat brain homogenate
EXPERIMENTAL_PARAMETERS: read-out: IC50 (index of dihydropyridine receptor affinity; inhibition of [3H]-nitrendipine binding)
ASSAY_ENDPOINT: IC50 (µM)

A. CCOC(=O)C1=C(C)N/C(=C\C(=O)c2ccccc2)[C@@H](C(=O)c2ccccc2)[C@@H]1c1ccccc1C(F)(F)F (relative stereo) [Example 9]
B. CCOC(=O)C1=C(C)N/C(=C\C(=O)c2ccc(F)cc2)[C@@H](C(=O)OCC)[C@@H]1c1ccccc1C(F)(F)F (relative stereo) [Example 4]
## Task Pick one: A or B . Which has the bigger IC50 number? Lab log: write the label of the selected item as the result.
## Result A
(A: 0.11 µM, B: 0.052 µM)

a. CCOC(=O)C1=C(C)N/C(=C\C(=O)c2ccccc2)[C@@H](C(=O)OCC)[C@@H]1c1cccc([N+](=O)[O-])c1 (relative stereo) [Example 14]
b. CCOC(=O)[C@H]1/C(=C/C(=O)c2ccccc2)NC(C)=C([N+](=O)[O-])[C@@H]1c1ccccc1C(F)(F)F (relative stereo) [Example 7]
## Task Compare reported IC50 values for a and b . Which is lower? Lab note: record the label of whichever item you select.
## Result a
(a: 0.085 µM, b: 0.13 µM)
